Numbers sourced from PubChem BioAssay (NCATS).

test: Quantitative high throughput screen for delayed death inhibitors of the malarial parasite plastid, 96 hour incubation (AID 488745); settings: Plasmodium falciparum growth; series mostly up to 28.7 µM; further: nearly all actives have a fitted effect of over 70% in size; further: potency means the concentration at half of the fitted maximal effect
Records with an inconclusive call do not appear. Active and inactive are the calls of the source. The call rests on the fitted dose curve; in most records, active means well fitted inhibition curve with a large enough effect; inconclusive means small, poorly fitted or top-dose-only effect, or effect the other way; inactive means no such curve, though single readings can be large or run the other way.
property: Potency

molecule	property	experimentalResult
OC[C@H]1O[C@@H](n2cnc3c(NC4CCCC4)ncnc32)[C@H](O)[C@H]1O	Potency	inactive
N=C(N)SCCc1cccc(CCSC(=N)N)c1	Potency	13.1 µM (active)
COc1cc2c(cc1OC)C(c1ccccc1)CN(C)CC2 (centres undefined)	Potency	inactive
C[C@]12C=CC(=O)C=C1CCC1C2=CC[C@]2(C)[C@@H](C(=O)CN3CCN(c4cc(N5CCCC5)nc(N5CCCC5)n4)CC3)CC[C@@H]12 (some centres undefined)	Potency	13.1 µM (active)
O=C(Cc1ccc(Cl)c(Cl)c1)OCCN1CCCC1	Potency	inactive
CN1C2CC(OC(=O)C(CO)c3ccccc3)CC1C1OC12 (centres undefined)	Potency	inactive
CC(O)[C@@H](O)[C@H]1CNc2nc(N)[nH]c(=O)c2N1 (some centres undefined)	Potency	inactive
OC[C@H]1O[C@@H](n2cnc3c(NCCc4ccccc4)ncnc32)[C@H](O)[C@H]1O	Potency	inactive
CCCCCCCCCCCCCCC/C=C/[C@@H](O)[C@H](NC(=O)CCCCCCCCCCCCC)OC (tested in a mixture with another compound)	Potency	inactive

----------
assay: qHTS Assay for Lipid Storage Modulators (AID 1519); conditions: Drosophila S3 cells, BODIPY lipid droplet/cell ratio, laser cytometry; measured here: lipid channel max response; cells loaded with oleic acid
Results filed as inconclusive are left out.
property: max response (%)

structureNotation	experimentalResult
O=c1c(-c2cccs2)nc2cnc(N3CCOCC3)nc2n1Cc1ccc(F)cc1	13.5
CS(=O)(=O)Nc1cccc(-c2nccc(NCc3ccccc3)n2)c1	4.33
CN1CCN(c2ncc3nc(-c4ccc(Cl)cc4)c(=O)n(Cc4cccs4)c3n2)CC1	16.2
O=C(Oc1ccccc1)N1CCC2(CCCN(c3ccccc3)C2)CC1	-12.6
c1ccc(-c2cccc(N3CC4(CCNCC4)C3)c2)cc1	-10.1
O=C(c1ccco1)N1CCC2(CC1)CCN(c1cccc(-c3ccccc3)c1)CC2	9.11
O=S(=O)(c1ccccc1)N1CCC[C@@]2(CCN(c3ccncc3)C2)C1	6.49
O=c1c(-c2cc(F)cc(F)c2)nc2cncnc2n1-c1ccccc1	28.7
N#Cc1cccc(-c2cc(NCc3cccs3)ncn2)c1	-10.9
Cc1nc2cnc(Nc3ccccc3)nc2n(C)c1=O	2.52
CC(C)NC(=O)N1CCCC2(CCN(C(=O)c3cccc(F)c3)CC2)C1	27.6

----------
test: G06 Cancer Cell Toxicity qHTS against the NCATS CANVASS Library (AID 1347368); conditions: G06 dog glioma cells, viability ATP luminescence, 72 h; series mostly up to 46.1 µM; further: nearly all actives have a fitted effect of over 60% in size; further: potency means the concentration at half of the fitted maximal effect
Records with an inconclusive call do not appear. Calls of active or inactive are those of the source. Calls come from the whole dose curve; as a rule, active = well fitted cell-killing curve with a large enough effect; inconclusive = small, poorly fitted or top-dose-only effect; inactive = flat fitted curve, though single readings scatter.
property: Potency

molecule	property	experimentalResult
CC[C@@H](c1cc(OC)c(OC)cc1OC)[C@H](C)[C@@H](/C(C)=C/c1cc(OC)c(OC)cc1OC)c1cc(OC)c(OC)cc1OC	Potency	inactive
COc1cc2c(c(O)c1O)C(=O)c1c(coc1C)C2=O	Potency	11.8 µM (active)
C/C(=C\CC[C@@H](C)[C@H]1CC[C@]2(C)C3=CCC4C(C)(C)[C@@H](O)C[C@@H](O)[C@]4(C)C3[C@H](O)C[C@@]12C)CO (stereo partly drawn)	Potency	inactive
CCC(=O)CCCCC[C@@H]1NC(=O)[C@H]2CCCCN2C(=O)[C@H](C(C)C)NC(=O)[C@H](Cc2cn(OC)c3ccccc23)NC1=O	Potency	4.69 µM (active)
O[C@H]1c2ccccc2-c2c3c(cc4c2[C@@H]1NCC4)OCO3	Potency	16.6 µM (active)
O=c1cc(-c2ccc(O)cc2)oc2cc(O)c([C@@H]3OC(CO)[C@H](O)[C@@H](O)[C@H]3O)c(O)c12 (stereo partly drawn)	Potency	inactive
O=Cc1ccc2n1C[C@]1(OC2)O[C@H](CO)[C@@H](O)[C@@H]1O	Potency	inactive
C/C(=C\[C@H](C)C(=O)C[C@H](O)CC1CC(=O)NC(=O)C1)[C@@H]1OC(=O)CCCC/C=C/[C@@H](O)C[C@@H]1C	Potency	2.96 µM (active)
